- target system: Axl (UniProt P30530)
- Sequence (P30530 26-451 limits assumed): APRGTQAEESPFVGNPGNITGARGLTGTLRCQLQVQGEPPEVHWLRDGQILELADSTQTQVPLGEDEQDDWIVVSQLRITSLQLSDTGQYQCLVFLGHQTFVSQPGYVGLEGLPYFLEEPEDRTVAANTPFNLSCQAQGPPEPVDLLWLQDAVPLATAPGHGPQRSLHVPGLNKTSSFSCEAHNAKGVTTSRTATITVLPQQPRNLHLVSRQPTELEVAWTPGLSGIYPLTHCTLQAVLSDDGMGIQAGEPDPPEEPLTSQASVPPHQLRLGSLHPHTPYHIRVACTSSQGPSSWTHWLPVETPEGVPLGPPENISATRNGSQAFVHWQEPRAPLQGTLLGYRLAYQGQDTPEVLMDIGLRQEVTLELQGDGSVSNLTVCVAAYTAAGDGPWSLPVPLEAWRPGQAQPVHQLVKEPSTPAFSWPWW
- procedure text: ELISA, 1:3 dilution
Below: a set of entries, each annotated with reported Affinity ELISA CPE mutant ratio (1:3, pH 6.0/7.4).
readout: Affinity ELISA CPE mutant ratio (1:3, pH 6.0/7.4)

binder	readout number
LC-V029G (antibody, V domains shown) VH: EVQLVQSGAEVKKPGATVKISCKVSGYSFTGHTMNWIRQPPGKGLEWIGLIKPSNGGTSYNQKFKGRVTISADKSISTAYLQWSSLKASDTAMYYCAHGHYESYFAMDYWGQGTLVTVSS VL: DIQMTQSPSSLSASVGDRVTITCKASQDGSSAVAWYQQKPGQAPRLLIYWASTRHTGVPSRFSGSGSGTEFTLTISSLQPDDFATYYCQEHFSTPLTFGQGTKVEIK	1.94
LC-A032M (antibody, V domains shown) VH: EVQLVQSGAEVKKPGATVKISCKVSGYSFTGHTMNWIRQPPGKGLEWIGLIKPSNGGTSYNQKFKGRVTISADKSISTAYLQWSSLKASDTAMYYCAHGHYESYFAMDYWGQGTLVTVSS VL: DIQMTQSPSSLSASVGDRVTITCKASQDVSSMVAWYQQKPGQAPRLLIYWASTRHTGVPSRFSGSGSGTEFTLTISSLQPDDFATYYCQEHFSTPLTFGQGTKVEIK	4.76
HC-F105V (antibody, V domains shown) VH: EVQLVQSGAEVKKPGATVKISCKVSGYSFTGHTMNWIRQPPGKGLEWIGLIKPSNGGTSYNQKFKGRVTISADKSISTAYLQWSSLKASDTAMYYCAHGHYESYVAMDYWGQGTLVTVSS VL: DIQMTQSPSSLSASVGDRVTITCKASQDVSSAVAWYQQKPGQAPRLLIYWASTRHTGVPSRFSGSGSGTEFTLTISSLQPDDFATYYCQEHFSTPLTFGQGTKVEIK	2.43
LC-H091T (antibody, V domains shown) VH: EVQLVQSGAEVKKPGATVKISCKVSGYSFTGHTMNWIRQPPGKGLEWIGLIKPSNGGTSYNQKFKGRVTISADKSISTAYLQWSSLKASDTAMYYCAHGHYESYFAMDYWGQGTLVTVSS VL: DIQMTQSPSSLSASVGDRVTITCKASQDVSSAVAWYQQKPGQAPRLLIYWASTRHTGVPSRFSGSGSGTEFTLTISSLQPDDFATYYCQETFSTPLTFGQGTKVEIK	3.78
LC-H091C (antibody, V domains shown) VH: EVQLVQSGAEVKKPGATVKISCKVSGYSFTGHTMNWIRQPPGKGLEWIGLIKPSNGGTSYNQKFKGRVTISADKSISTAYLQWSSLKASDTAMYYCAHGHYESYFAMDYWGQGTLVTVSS VL: DIQMTQSPSSLSASVGDRVTITCKASQDVSSAVAWYQQKPGQAPRLLIYWASTRHTGVPSRFSGSGSGTEFTLTISSLQPDDFATYYCQECFSTPLTFGQGTKVEIK	4
